Tested System: T1, human CD131 (human, UniProt P32927 17-897)
T1 sequence: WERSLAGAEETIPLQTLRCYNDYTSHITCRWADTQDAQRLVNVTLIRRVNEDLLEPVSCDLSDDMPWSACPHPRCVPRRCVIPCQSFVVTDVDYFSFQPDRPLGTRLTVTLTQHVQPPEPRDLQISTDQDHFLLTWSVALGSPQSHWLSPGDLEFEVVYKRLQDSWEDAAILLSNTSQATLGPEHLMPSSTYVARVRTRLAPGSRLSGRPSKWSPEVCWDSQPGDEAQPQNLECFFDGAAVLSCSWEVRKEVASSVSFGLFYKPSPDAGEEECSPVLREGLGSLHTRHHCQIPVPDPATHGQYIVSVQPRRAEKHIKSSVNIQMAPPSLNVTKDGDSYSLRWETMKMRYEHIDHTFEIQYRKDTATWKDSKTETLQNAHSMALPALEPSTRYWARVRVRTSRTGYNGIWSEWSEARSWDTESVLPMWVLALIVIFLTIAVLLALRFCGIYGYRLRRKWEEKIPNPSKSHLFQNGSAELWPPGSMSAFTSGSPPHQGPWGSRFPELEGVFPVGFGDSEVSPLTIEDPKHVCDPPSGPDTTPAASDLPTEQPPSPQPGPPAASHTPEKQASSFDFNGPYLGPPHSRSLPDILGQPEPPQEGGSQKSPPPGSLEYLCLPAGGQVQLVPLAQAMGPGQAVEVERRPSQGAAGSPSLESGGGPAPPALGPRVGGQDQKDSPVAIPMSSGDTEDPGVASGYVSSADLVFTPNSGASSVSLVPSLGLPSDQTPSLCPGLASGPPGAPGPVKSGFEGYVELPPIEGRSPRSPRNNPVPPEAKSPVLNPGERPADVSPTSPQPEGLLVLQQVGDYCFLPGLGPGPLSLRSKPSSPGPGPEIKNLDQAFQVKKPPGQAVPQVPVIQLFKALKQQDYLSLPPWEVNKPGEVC
Protocol Summary: cell-based or functional assay
Observation Type: IC50 GM-CSF, TF-1 proliferation (nM)
Provide the reading as a plain figure in nM.

9A2-VR36 (antibody, V domains shown) VH: EVQLLESGGGLVQPGGSLRLSCAASGFTFSHYHMLWVRQAPGKGLEWVSSIGGDKRQTYYADSVKGRFTISRDNSKNTLYLQMNSLRAEDTAVYYCARFYDSFFDIWGQGTMVTVSS VL: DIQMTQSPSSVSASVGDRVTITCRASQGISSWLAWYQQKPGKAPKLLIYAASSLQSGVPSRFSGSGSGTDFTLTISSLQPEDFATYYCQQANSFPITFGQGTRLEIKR	38.1

Now consider the entry below.
Data request: Identify the reported IC50 GM-CSF, TF-1 proliferation for the following entry. 9A2-VR38 (antibody, V domains shown) VH: EVQLLESGGGLVQPGGSLRLSCAASGFTFSHYHMLWVRQAPGKGLEWVSSINGMGATTYYADSVKGRFTISRDNSKNTLYLQMNSLRAEDTAVYYCARFYDSFFDIWGQGTMVTVSS VL: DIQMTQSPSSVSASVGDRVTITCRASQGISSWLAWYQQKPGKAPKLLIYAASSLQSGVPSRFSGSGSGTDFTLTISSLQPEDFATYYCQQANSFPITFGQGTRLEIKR
Data returned: 5
